Test system: MCF7
Method: Cytotoxicity against human MCF7 Cells after 48 hrs by MTS assay
Format: functional, cell-based
Test Settings: MCF7, 48 h
pIC50: −log10 of the molar value.
Documented pIC50 across a set of compounds

Compound | Target Entity | pIC50
COc1ccc(/C=N/NC(=O)/C=C/c2ccc(O)c(OC)c2)cc1 | MCF7 | 4.39
COc1cc(/C=C/C(=O)N/N=C/c2ccc(O)c(OC)c2)ccc1O | MCF7 | 4.37
COc1cc(/C=C/C(=O)CC(=O)/C=C/c2ccc(O)c(OC)c2)ccc1O [CURCUMIN] | MCF7 | 4.17

====

Target Entity: Tyrosine-protein kinase ABL1 (Homo sapiens, UniProt P00519, Y253F)
Method: Inhibition of ABL Y253F mutant (unknown origin)
pIC50: −log10 of the molar value.
Measured Property: pIC50

Item Smiles | Measured Property | Endpoint Value
COc1cc(C=C(C(=O)/C=C/c2ccc(O)c(OC)c2)C(=O)/C=C/c2ccc(O)c(OC)c2)ccc1O | pIC50 | 7.10
